Hey, just so you know, these numbers are from the supplement of paper PMC3334620.

test-target: Cad1 (UniProt P24813)
Sequence: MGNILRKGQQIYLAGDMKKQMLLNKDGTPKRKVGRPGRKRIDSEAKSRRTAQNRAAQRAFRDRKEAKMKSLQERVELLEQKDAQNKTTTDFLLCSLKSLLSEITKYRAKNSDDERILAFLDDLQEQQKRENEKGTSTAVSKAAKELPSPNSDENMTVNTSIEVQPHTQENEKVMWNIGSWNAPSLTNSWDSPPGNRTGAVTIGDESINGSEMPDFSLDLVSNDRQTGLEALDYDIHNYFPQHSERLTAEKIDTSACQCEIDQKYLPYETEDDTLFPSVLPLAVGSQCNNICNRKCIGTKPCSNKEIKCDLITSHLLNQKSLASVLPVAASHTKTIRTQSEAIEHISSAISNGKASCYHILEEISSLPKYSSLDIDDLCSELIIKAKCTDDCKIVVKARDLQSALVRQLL
procedure-summary: PBM E-score (8-mer binding enrichment) (E-score (-0.5 to 0.5)); higher = stronger / more preferred TF binding
settings: protein concentration: 100 nM; construct: GST-full length
The full ranking holds about 33,000 sequences; the median of “E-score (-0.5 to 0.5)” is about -0.0014, and the highest 2% start at about 0.25. Only a selection was taken, and the highest values are over-represented in it overall.
reported-metric: PBM E-score
Give bare numbers.

{"columns": ["chain-sequence", "PBM E-score"],
 "data": [
  ["GACGAAAA", 0.297],
  ["CCTGACTC", -0.139],
  ["ACTGACTA", 0.116],
  ["ACCTCGGG", -0.173],
  ["CCGATTGC", 0.25]
]}

Please give PBM E-score, item by item, for the list that follows.
1. TATAGGAA
2. ACTGACCA
3. ACGGGTCT
4. AGGCTGTA
5. CCACTGTC

Reply:
1. 0.127
2. -0.105
3. -0.252
4. -0.0168
5. -0.0971

Please go through the list and note PBM E-score for each sequence.
1. AACGAAAT
2. CGCATATC

Reply:
0.303
0.318

Provide PBM E-score values for the following items, in order.
1. GTTGACTA
2. GCTGACTA
3. AACGATAG
4. CGCATATA
5. CTTTCACA

Reply:
[0.0212, 0.335, 0.0593, -0.0685, 0.209]
